- System: H1 or H9 human embryonic stem cells
- experiment.summary: Activin A bioassay: differentiation of human embryonic stem cells to definitive endoderm, cell number and SOX17 intensity by high content analysis (96-well, four days)
- Type: cell-based
- particulars: supernatant concentration 10x, assay dilution 1:20; control = R&D Sys Activin A 100 ng/ml on same plate
Overview of reported Sox 17 Intensity % of control across a group of molecules:
experimental.endpoint: Sox 17 Intensity % of control (%)

ACTN81: activin A variant peptide, SEQ ID 82 (protein) GLECDGKVNICCKKQLFGKTKDIGWNDWIIAPSGYHGGGCTGECPSHIAGTSGSSLSFHSTVINHYRMRGHSPVANLKSCCSPTKLRPMSMLYYDDGQNIIKKDIQRMVVEECGCT : 11.4
ACTN68: activin A variant peptide, SEQ ID 69 (protein) GLECDGKVNICCKKQSFGKAKDIGWNDWIIAPSGYHGGGCTGECPSHIAGTSGSSLSFHSTVINHYRMRGHSPFANLKSCCSPTKLRPMSMLYYDDGQNIIKKDIQGMKVEECGCT : 6.5
ACTN58: activin A variant peptide, SEQ ID 59 (protein) GLECDGKVNICCKKQSFGQTKDIGWNDWIIAPSGYHGGGCTGECPSHIAGTSGSSLSFHSTVINHYRMRGHSPWANLKSCCSPTKLRPMSMLYYDDGQNIIKKDIQNMKVEECGCT : 3.0
